The origin of these recorded values is PubChem BioAssay AID504765.

target of assay: glucose-6-phosphate dehydrogenase-6-phosphogluconolactonase (Plasmodium falciparum 3D7)
experiment notes: concentration-dependent PfGluPho enzyme inhibition – biochemical, fluorescence intensity, dose response (AID 504765)
setup conditions: Recombinant PfG6PD enzyme, fluorescence intensity (NADPH)
Active and inactive are the calls of the source. The rule behind the calls is not given here.
Respond using exactly one of the listed classes: True = active, False = inactive

Use the examples below as a reference point.
1. COc1cc(NC(C)CCc2ccccc2)cc(OC)c1OC (configuration not stated) ... True
2. COc1cc(/C=C2\SC(c3ccc(C)cc3)=NC2=O)ccc1O ... True
3. CN1CCN(C(=S)c2ccc(Br)cc2)CC1 ... False
4. Cc1ccc(S(=O)c2ccc([N+](=O)[O-])c3nonc23)cc1 (configuration not stated) ... True
5. Cc1ccc(/C=C/C(=O)NCC2COc3ccccc3O2)o1 (configuration not stated) ... True
6. CC(NC1=CC(=O)c2cccnc2C1=O)C(O)c1ccccc1 (configuration not stated) ... True

Please share the test call associated with `Cc1nc2c(o1)C(=O)c1ccccc1C2=Nc1ccccc1` .
True

Follow-up item: `COc1c(O)c(O)c2oc(-c3ccccc3)cc(=O)c2c1OC`
True

Follow-up item: `CN(C)c1ccc(/C=C/c2ccc3c4ccccc4ccc3[n+]2-c2ccccc2)cc1`
False

Follow-up item: `N#C/C(C(=O)Nc1ccc(Cl)cc1)=C(/S)Nc1ccccc1`
True

Follow-up item: `COc1ccc(/C=C/c2nc3ccccc3n2C)cc1`
True

Follow-up item: `CN(C)S(=O)(=O)c1cccc(-n2sc3ccccc3c2=O)c1`
True

* * *

target of assay: glucose-6-phosphate dehydrogenase-6-phosphogluconolactonase (Plasmodium falciparum 3D7)
experiment notes: concentration-dependent PfGluPho enzyme inhibition – biochemical, fluorescence intensity, dose response (AID 504765)
setup conditions: Recombinant PfG6PD enzyme, fluorescence intensity (NADPH)
Exercise: state measured IC50 for each of the compounds provided.

# annotated cases, reported IC50 shown
1) CCCn1cc(S(=O)(=O)CC(=O)Nc2ccc(OC)cc2OC)c2ccccc21 ... 7.87 µM
2) CN(C)c1ccc(Cc2cc3c(O)ccc(O)c3cc(Cc3ccc(N(C)C)cc3)c2=O)cc1 ... 2.05 µM
3) Nc1ccc(N(CCO)CCO)cc1 ... 4.71 µM
4) COc1cc(CN2CCN(CCCc3ccccc3)C(CCO)C2)cc(OC)c1O (stereo unspecified) ... 7.68 µM
5) CCN(CC)c1ccc(C(=C2C=CC(=[N+](CC)CC)C=C2)c2ccccc2)cc1 ... 11.7 µM

Need IC50 of `O=C(CNC(=O)c1ccco1)OCC(=O)c1ccc([N+](=O)[O-])cc1` , thanks.
19.1 µM

* * *

Exercise: state measured IC50 for each of the molecules provided.
target of assay: glucose-6-phosphate dehydrogenase-6-phosphogluconolactonase (Plasmodium falciparum 3D7)
experiment notes: concentration-dependent PfGluPho enzyme inhibition – biochemical, fluorescence intensity, dose response (AID 504765)
setup conditions: Recombinant PfG6PD enzyme, fluorescence intensity (NADPH)

# annotated cases, reported IC50 shown
1. CC1(OC(=O)C2CCCC2)C(=O)C=C2C=C(c3ccsc3)N(Cc3ccc4c(c3)OCO4)C=C2C1=O (stereo not given) ... 11.1 µM
2. CCOc1ccc2ccccc2c1/C=N/NC(=O)c1ccncc1 ... 3.49 µM
3. O=C(Nc1ccc(N2CCOCC2)c(Cl)c1)c1ccc(Cl)cc1 ... 4.87 µM

For the next question, use this molecule.
Param readout = IC50; param system = glucose-6-phosphate dehydrogenase-6-phosphogluconolactonase (Plasmodium falciparum 3D7); param query = `Cc1ccc(S(=O)(=O)N(C(=O)c2ccncc2)c2ccc(OC(=O)c3ccncc3)c3ccccc23)cc1` ; response: value
17.7 µM

* * *

target of assay: glucose-6-phosphate dehydrogenase-6-phosphogluconolactonase (Plasmodium falciparum 3D7)
experiment notes: concentration-dependent PfGluPho enzyme inhibition – biochemical, fluorescence intensity, dose response (AID 504765)
setup conditions: Recombinant PfG6PD enzyme, fluorescence intensity (NADPH)
pIC50: −log10 of the molar value.
Lab note: anything with pIC50 at or over 5 counts as t; the rest go in f.

Use the examples below as a reference point.
1) Cc1ccccc1OCC(=O)NCC(=O)OCC(=O)c1ccc([N+](=O)[O-])cc1 ... f
2) NNC(=O)CN1C(c2ccccc2Br)=Nc2ccc(Br)cc2C1c1ccccc1 (stereo unspecified) ... t
3) COc1cc(N2C(=O)C=CC2=O)ccc1N1C(=O)C=CC1=O ... t
4) COc1ccc(CCn2c(NN=C(C)C)nc3c2c(=O)[nH]c(=O)n3C)cc1 ... t
5) c1cc2c(cc1NC1CCCCCC1)OCO2 ... f
6) CCCCCCCCn1sccc1=O ... t
7) CC(C)Sc1nnc(NC(=O)c2ccc3c(c2)OCO3)s1 ... t
8) Cc1cc(C)c2c(=O)n(CC(=O)Nc3ccc(Br)c(C)c3)sc2n1 ... t
9) CCOC(=O)c1ccc(/[N+]([O-])=C/c2ccccc2)cc1 ... t
10) Cc1ccc(S(=O)(=O)/N=C2/C=C(C3C(=O)CC(C)(C)CC3=O)C(=O)c3ccccc32)cc1 ... f

Now take the following compound into account.
For this compound, is measured pIC50 5 or higher? CCN1CCCC1CNC(=O)c1ccc2c(c1)NC(=O)/C(=C\c1ccc(C)cc1)S2 (stereo unspecified)
t

* * *

target of assay: glucose-6-phosphate dehydrogenase-6-phosphogluconolactonase (Plasmodium falciparum 3D7)
experiment notes: concentration-dependent PfGluPho enzyme inhibition – biochemical, fluorescence intensity, dose response (AID 504765)
setup conditions: Recombinant PfG6PD enzyme, fluorescence intensity (NADPH)
Calls of active or inactive are those of the source. The rule behind the calls is not given here.
measured endpoint: IC50

1) O=S(=O)(NCc1csc(-c2ccccc2)n1)c1ccc(Cl)s1 ... 6.28 µM
2) O=C(CNC(=O)c1cccs1)NCC(=O)OCC(=O)c1ccc([N+](=O)[O-])cc1 ... 16.7 µM
3) COc1cc(NCc2ccccc2)c2ncn(C(C)C)c2c1 ... inactive
4) O=S(c1ccccc1O)S(=O)c1ccccc1O (configuration not stated) ... 4.89 µM
5) CC(=O)Nc1ccc(S(=O)(=O)NNc2cccc(C)c2)cc1 ... inactive
6) Cc1cc(O)c(-c2cc(O)c(C)cc2O)cc1O ... 1.88 µM
7) ClC(Cl)(c1nnnn1-c1ccccc1)c1nnnn1-c1ccccc1 ... 3.8 µM
8) O=C(NC1=CC(=O)c2ccccc2C1=O)c1ccccc1 ... 2.53 µM
9) O=C(Nc1sc2c(c1C(=O)O)CCC2)c1ccc(F)cc1 ... 7.8 µM
10) CN1CCN(C(=S)C(=O)Nc2ccc(Br)cc2)CC1 ... 7.26 µM

For every item in the list below, what is its measured IC50?
1. COc1cc(Sc2ccc(C)cc2)c(OC)cc1N
2. CN1C(=O)C(N=Nc2ccc([N+](=O)[O-])cc2)SC1=S (configuration not stated)

7.04 µM
5.43 µM

* * *

target of assay: glucose-6-phosphate dehydrogenase-6-phosphogluconolactonase (Plasmodium falciparum 3D7)
experiment notes: concentration-dependent PfGluPho enzyme inhibition – biochemical, fluorescence intensity, dose response (AID 504765)
setup conditions: Recombinant PfG6PD enzyme, fluorescence intensity (NADPH)
Calls of active or inactive are those of the source. The rule behind the calls is not given here.
Respond using exactly one of the listed classes: active, inactive

Use the examples below as a reference point.
1. C[C@H](NC(N)=O)C(=O)Nc1ccc(N2CCOCC2)c(S(=O)(=O)Nc2ccc(Cl)cc2)c1 ... inactive
2. Cc1cc(O)c(C(C)C)cc1N=Cc1ccc([N+](=O)[O-])cc1 ... active
3. COc1ccc(OCc2nnc3n2N=C(c2ccccc2)C(CC(=O)O)S3)cc1 (stereo not given) ... inactive
4. CCS(=O)(=O)N1CCN(c2ccc([N+](=O)[O-])c(NC(C)c3ccccc3)c2)CC1 (stereo not given) ... active

Now take the following molecule into account.
Please share the test call associated with `Cc1ccc(-n2sc3cc(F)ccc3c2=O)c(C)c1` .
active

* * *

target of assay: glucose-6-phosphate dehydrogenase-6-phosphogluconolactonase (Plasmodium falciparum 3D7)
experiment notes: concentration-dependent PfGluPho enzyme inhibition – biochemical, fluorescence intensity, dose response (AID 504765)
setup conditions: Recombinant PfG6PD enzyme, fluorescence intensity (NADPH)
Exercise: state measured IC50 for each of the molecules provided.

1. Nc1c(O)cccc1C(=O)O ... 1.44 µM

For every item in the list below, what is its measured IC50?
1. [O-][N+](=Cc1ccccc1)c1ccc(Cl)cc1
2. CCOc1ccc(Cl)cc1/C=N/NC(N)=O
3. COC(=O)c1cc2c(n1S(=O)(=O)c1ccc(C)cc1)C(=O)C(=O)c1[nH]cc(C(=O)OCc3ccccc3)c1-2
4. CC(C)c1cc2c(c(O)c1O)[C@@]13CCCC(C)(C)C1CC2OC3=O (stereo partly specified)
5. COc1ccc(N2CSC3=C(C#N)C(c4cc(OC)c(OC)cc4OC)CC(=O)N3C2)c(OC)c1 (stereo unspecified)

3.34 µM
12.4 µM
15.8 µM
4.95 µM
3.13 µM
